Biological target: T1, Yeast Hat2p (full length) with N-terminal 6xHis tag (yeast (Saccharomyces cerevisiae), UniProt P39984 1-401)
T1 sequence: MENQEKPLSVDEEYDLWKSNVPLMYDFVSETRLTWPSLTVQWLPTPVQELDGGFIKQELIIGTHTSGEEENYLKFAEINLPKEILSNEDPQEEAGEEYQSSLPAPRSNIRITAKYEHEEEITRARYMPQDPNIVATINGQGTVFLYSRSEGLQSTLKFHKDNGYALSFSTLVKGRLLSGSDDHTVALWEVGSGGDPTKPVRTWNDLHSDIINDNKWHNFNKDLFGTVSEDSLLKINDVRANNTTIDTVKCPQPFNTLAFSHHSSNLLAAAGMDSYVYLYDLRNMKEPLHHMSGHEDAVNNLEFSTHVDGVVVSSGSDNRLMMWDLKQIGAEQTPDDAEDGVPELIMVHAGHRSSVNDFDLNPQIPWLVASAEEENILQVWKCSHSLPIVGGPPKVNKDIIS
Assay: pull-down
parameter.measured: binding result

Yeast Hat1p (1-320) (enzyme) MSANDFKPETWTSSANEALRVSIVGENAVQFSPLFTYPIYGDSEKIYGYKDLIIHLAFDSVTFKPYVNVKYSAKLGDDNIVDVEKKLLSFLPKDDVIVRDEAKWVDCFAEERKTHNLSDVFEKVSEYSLNGEEFVVYKSSLVDDFARRMHRRVQIFSLLFIEAANYIDETDPSWQIYWLLNKKTKELIGFVTTYKYWHYLGAKSFDEDIDKKFRAKISQFLIFPPYQNKGHGSCLYEAIIQSWLEDKSITEITVEDPNEAFDDLRDRNDIQRLRKLGYDAVFQKHSDLSDEFLESSRKSLKLEERQFNRLVEMLLLLNNS	binds
